B1: glmS ribozyme (parent)
chain: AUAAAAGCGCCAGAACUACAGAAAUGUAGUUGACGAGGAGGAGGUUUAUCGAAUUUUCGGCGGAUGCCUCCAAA

Variants of: B1
Assay: self-cleavage kobs at 2500 uM GlcN6P; higher = faster cleavage; RNA array
Details: with glucosamine-6-phosphate
This sample holds only a part of the variants without activity.
REPORTED_ENDPOINT: self-cleavage kobs at 2500 uM GlcN6P

Give a short answer stating reported self-cleavage kobs at 2500 uM GlcN6P for AUAAAAGAGCCAGAACUACAGAAAUGUAGUUGACGAGGAGAAGUUUUAUCGAAUUUUCGGCGGAUGCCUCCAAA [C8A G41A G44U] .
< 1e-05 s⁻¹

Input AUAAAAGGGCCAGAACUACAGAAAUGUAGUUAACGAGGAGGAGGUUUAUCGAAGUUUCGGCGGAUGCCUCCAAA [C8G G32A U54G] , output reported self-cleavage kobs at 2500 uM GlcN6P.
< 1e-05 s⁻¹

Input AUAAAAGCGCCAGGACUACAGAAAUGUAGUUGACGAGGAGGAGGUUUAUCGAAUUUUCAGCGGAGACCUCCAAA [A14G G59A U65G G66A] , output reported self-cleavage kobs at 2500 uM GlcN6P.
< 1e-05 s⁻¹

Specify reported self-cleavage kobs at 2500 uM GlcN6P for the variant shown: AUAAAAGCGCCAUAACUACAGAAAUGUAGUUGACGAGGAGGCGGUUUAUCGAAAGUUCGGCGGAUGCCUCCAAA [G13U A42C U54A U55G]
< 1e-05 s⁻¹

# return recorded self-cleavage kobs at 2500 uM GlcN6P for entry AUAAAAGAGCCAGAGCUACAGAAAUGUAGUUUACGAGGAGGAGUUUUAUCGAAUUUUCGGCGGAUGACUCCAAA [C8A A15G G32U G44U C67A]
< 1e-05 s⁻¹

State its self-cleavage kobs at 2500 uM GlcN6P for this variant: AUAAAAGCGGCAGAACUACAGAAAUGUAGUUGGCGAGGAGGAGGUUUAUCUAAUUUUCGGCGGAUGCCUCCAAA [C10G A33G G51U]
< 1e-05 s⁻¹

Provide self-cleavage kobs at 2500 uM GlcN6P value for the following variant: AUAAAAGCGUUAGACCUACAGAAAUGUAGUUGAAGAGGAGGAGGUUUAUCGAAUUUUCGGCGGAUGCCUCCAAA [C10U C11U A15C C34A]
< 1e-05 s⁻¹

Identify measured self-cleavage kobs at 2500 uM GlcN6P corresponding to AUAAAAGUGCCAGAACUACAGAAAUGUAGUUGACGAGGAGGAGGUUUAUCCAAUUUUCGGCGGAUGCCUCCAAA [C8U G51C]
< 1e-05 s⁻¹

Please indicate self-cleavage kobs at 2500 uM GlcN6P recorded for AUAAAAGCGCCAGAGCUACAGAAAUGUAGUUGACGAGGAGGAGUUUUAUUGAAUUUUCGGCGGUUGCCUCCAAA [A15G G44U C50U A64U]
< 1e-05 s⁻¹

Return reported self-cleavage kobs at 2500 uM GlcN6P. Input variant: AUAAAAGCGCCAGAACUACAGAAAUGUAGUUGACGAGGAGGAGGUUUAUCGAAUUUUCGGCGGAUCCCUACAAA [G66C C70A]
6.82e-05 s⁻¹

Quote self-cleavage kobs at 2500 uM GlcN6P reported for AUAAAAGCGCCAGAACUACAGAAAUGUAGUUGUCGAGGAGGGGGUUUAUCGAAUUUUCGGCGGAUGCCUCCAAA [A33U A42G] please.
6.02e-05 s⁻¹

Please report self-cleavage kobs at 2500 uM GlcN6P for the following variant: AUAAAAGCGCCAGAACUACAGAAAUGUAUUUGACGAGGAGGAGGUUUAUCGAAUCUUCGCCGGAUGCGUCCAAA [G29U U55C G60C C68G]
< 1e-05 s⁻¹

Kindly indicate its recorded self-cleavage kobs at 2500 uM GlcN6P. Item: AUAAAAGCGCCUGAACUACAGAAAUGUAGUUGACGAGGAGGAGGUUUAUCGAAUUUGCGGCGGAUGCCUCCAAA [A12U U57G]
0.000162 s⁻¹

Recall and state the measured self-cleavage kobs at 2500 uM GlcN6P for AUAAAAGCGACAGAACUACAGAAAUGUAGUUGACGCGGAGGAGGUUUAUGGAAUUUUCGGCGGAUGCCUCCAAA [C10A A36C C50G] .
0.000367 s⁻¹

Answer with reported self-cleavage kobs at 2500 uM GlcN6P of AUAAAAGCGACAGAACUACAGAAAUGUAGUUGACGAGGAGGAGGUUUAUCGAAUUUUCGGCGGAUGCCUUCAAA [C10A C70U]
2.56e-05 s⁻¹

Supply self-cleavage kobs at 2500 uM GlcN6P value. Item: AUAAAAGCGCCCGAUCUACAGAAAUGUAGUUGACGAGGAGGAGGUUUAUCGAAUUUUCGGCAGAUGCCUCCAAA [A12C A15U G62A]
< 1e-05 s⁻¹

Quote self-cleavage kobs at 2500 uM GlcN6P reported for AUAAAAGCGUUACAACUACAGAAAUGUAGUUGACGAGGAGGUGGUUUAUCGAAAUUUCGGCGGAUGCCUCCAAA [C10U C11U G13C A42U U54A] please.
< 1e-05 s⁻¹

Give self-cleavage kobs at 2500 uM GlcN6P for AUAAAAGCGCCAGAAUUACAGAAAUGUAGUUGACGAGGAAGAGGUUUAUCGAAUUUUCGGCGGAUGCCCCCAAA [C16U G40A U69C]
3.52e-05 s⁻¹

In one line, give reported self-cleavage kobs at 2500 uM GlcN6P of the entry AUAAAAGCGCCAGAGCUACAGAAAUGUAGUUGACGAGGAGGAGGUUUAUCGAAUUUUCGGCGGUUGCCUCCAAA [A15G A64U] .
9.11e-05 s⁻¹

Consider the variant AUAAAAGUGCCAGAACUACAGAAAUGUAGUUGACGAGGAGGAGGUUUAUCGAAUUUUCGGCGGAUCCCUCCAAA [C8U G66C] . State its measured self-cleavage kobs at 2500 uM GlcN6P.
< 1e-05 s⁻¹

Respond only with self-cleavage kobs at 2500 uM GlcN6P recorded for AUAAAAGCGCCAGAACUACAGAAAUGUAGUUGACGAGGAGGAGGUUUAUCGAAUUUUCGCCGGGUGCCUCCAAA [G60C A64G]
< 1e-05 s⁻¹

Look up and state reported self-cleavage kobs at 2500 uM GlcN6P for AUAAACGGGCCAGAACUACAGAAAUGUAGUUGACGAGGAGGAGGUUUAUCGAAUUUUCGGCGGAUACCUUCAAA [A6C C8G G66A C70U]
< 1e-05 s⁻¹

Indicate the recorded self-cleavage kobs at 2500 uM GlcN6P value for this variant: AUAAAAGCGCCAGAACUACAGAAAUGUAGUUGACGAGGCGGAGGUUUAACGAAUUUUCGGUGGAUGCGUCCAAA [A39C U49A C61U C68G]
< 1e-05 s⁻¹

Quick one: give measured self-cleavage kobs at 2500 uM GlcN6P for AUAAAAGCGCCAGAACUACAGAAAUGUAGUUGAAGAGGAGUCGGUUUAUCGAAUUUUCGGCGGAUGCCUCCAAA [C34A G41U A42C]
< 1e-05 s⁻¹

Give a short answer stating reported self-cleavage kobs at 2500 uM GlcN6P for AUAAAAGCGCCAGAACUACAGAAAUGUAGUUGACUAGGAUGAGGUUUAUCGAAUUUUCGGCGGAUGCCUCCAAA [G35U G40U] .
< 1e-05 s⁻¹

Return self-cleavage kobs at 2500 uM GlcN6P for the following variant: AUAAAAGGGCCAGAACUACAGAAAUGUAGUUGACGAGGAGGAGGUUUAUCGGAUGUUCGGCGGAUGGUUCCAAA [C8G A52G U55G C67G C68U]
5.08e-05 s⁻¹

Note down self-cleavage kobs at 2500 uM GlcN6P recorded for AUAAAAUCGCCAGAACUACAGAAAUGUAGUUGACAAGGAGGAGGUUUAUCGAAUUUUCGGCGGAUGCCUCCAAA [G7U G35A]
< 1e-05 s⁻¹

Give a short answer stating reported self-cleavage kobs at 2500 uM GlcN6P for AUAAAAGCGCCAGAACUACAGAAAUGUAGUUGACGAGGAGGAGGUUUAUCGAAUAUUCGGCGGAUGCCACCAAA [U55A U69A] .
7.93e-05 s⁻¹

Respond only with self-cleavage kobs at 2500 uM GlcN6P recorded for AUAAAAGCGCCAGAACUACAGAAAUGUAGUUGACGAGGAGUAGGCUUAUCGAAUUUUCUGCGGAUGCCUCCAAA [G41U U45C G59U]
< 1e-05 s⁻¹

Name the recorded self-cleavage kobs at 2500 uM GlcN6P of the variant listed here: AUAAAAGCGCCAGAACUACAGAAAUGUAGUUGGCGAGGAGGAGGUUUAUCGGAUUUUCGGCAGAUGCCUCCAAA [A33G A52G G62A]
< 1e-05 s⁻¹

Fill in self-cleavage kobs at 2500 uM GlcN6P for record AUAAAAGCGACAGAACUACAGAAAUGUAGUUGACGAGAAGUAGAUUUAUCGAAUUUUCUGCGGAUGCCUCCAAA [C10A G38A G41U G44A G59U]
< 1e-05 s⁻¹

State, in one line, measured self-cleavage kobs at 2500 uM GlcN6P of AUAAAAGCGCCAGACCUACAGAAAUGUAGUUGACGAGGAGGAGGUUUAUGGAAUUUUCGGCGGAUGCCUCCAAA [A15C C50G]
0.000205 s⁻¹

Tell us which self-cleavage kobs at 2500 uM GlcN6P value is on record for AUAAAAGCGCCAGAACUACAGAAAUGUAGUUGACUAGGAGGAGGUGUAUCGAAUUUUCGGCGGAUGCCUCCAAA [G35U U46G]
< 1e-05 s⁻¹

Tell me self-cleavage kobs at 2500 uM GlcN6P reported for AUAAAAGCGCCAGAACUACAGAAAUGUAGUUGACGUGGAGGAGGUUUAUCGAAUUUUCGGCGGAUGCCGCCAAA [A36U U69G]
9.73e-05 s⁻¹

Consider the variant AUAAAAGCGCCAGAACUACAGAAAUGUAGUUGACGAGGAGGAGAUUUAUCGAAUUUUCGGCAGAUGCCUCCAAA [G44A G62A] . State its measured self-cleavage kobs at 2500 uM GlcN6P.
< 1e-05 s⁻¹

Report self-cleavage kobs at 2500 uM GlcN6P, nothing else, for this variant: AUAAAAGCGCCAGAACUACAGAAAUGUAGUUGACGAGGAGGAGGUUAAUCGAUUUUUCGGCGGAAGCCUCCAAA [U47A A53U U65A]
0.00126 s⁻¹
